Tested on: 786-O-Hif-Luc cells
Experiment: Luciferase Assay
Assay type: cell-based
Settings: 24 h, 786-O-Hif-Luc cells; about 24 hours; read-out: Luciferase EC50
observation.type: EC50 (nM)
Dear colleague, please return just the value in nM, with no unit written.

Guide cases for EC50, answers given:
molecule | endpoint.result
N#Cc1cc(F)cc(Oc2ccc3c(c2F)C(O)C(F)(F)S3(=O)=O)c1 (stereo not drawn) | 882
N#Cc1cc(F)cc(Oc2ccc(S(=N)(=O)CF)c3c2CC(F)(F)[C@H]3O)c1 (single isomer, unassigned) | 195
CS(=O)(=O)c1ccc(Oc2cncc(Br)c2)c2c1[C@H](O)[C@H](F)[C@@H]2F | 162
COCCNC1c2c(ccc(Oc3cc(F)cc(F)c3)c2Br)S(=O)(=O)C1(F)F (stereo not drawn) | 1780

Query string: Endpoint output: EC50 of `N#Cc1cc(Oc2ccc(S(=O)(=O)C(F)(F)F)c3c2CC(F)(F)[C@H]3O)c[n+]([O-])c1` . Value?
Result string: 160

Query string: Proceed to `CS(=O)(=O)c1ccc(Oc2cncc(Br)c2)c2c1[C@H](O)C(F)(F)C2`
Result string: 475

Query string: Follow-up item: CS(=O)(=NC#N)c1ccc(Oc2cc(F)cc(C#N)c2)c2c1[C@H](O)[C@H](F)C2 (mixture of isomers)
Result string: 115

Query string: Also, `N#Cc1cc(F)cc(Oc2ccc(S(N)(=O)=O)c3c2[C@@H](F)[C@@H](F)[C@H]3O)c1` please.
Result string: 67

Query string: Would you mind doing `Cc1cc(C#N)cc(Oc2ccc3c(c2C(F)F)[C@@H](O)C(F)(F)S3(=O)=O)c1` as well?
Result string: 100

----------
Biological target: HIF-2α HIS TAG-PASB Domain (Homo sapiens, UniProt Q99814)
Construct: 100 nM HIF-2α HIS TAG-PASB Domain
Sequence (Q99814 240-350 limits assumed): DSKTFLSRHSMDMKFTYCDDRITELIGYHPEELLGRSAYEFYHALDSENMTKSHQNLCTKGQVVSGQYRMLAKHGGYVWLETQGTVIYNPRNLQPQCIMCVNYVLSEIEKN
Assay: HIF-2α Scintillation Proximity Assay (SPA)
Format: binding
Settings: 150 nM Compound 211 probe, 100 nM HIF-2α HIS TAG-PASB Domain; read-out: SPA IC50
Readings of log10 of IC50 for the listed molecules
Could you please treat all values as log10 of IC50 in nM?

molecule | study.system | endpoint.result
N#Cc1cc(F)cc(Oc2ccc3c(c2CF)C(O)C(F)(F)S3(=O)=O)c1 (stereo not shown) [Compound 152] | HIF-2α HIS TAG-PASB Domain (Homo sapiens, UniProt Q99814) | 1.93
CC1(C)C(O)c2c(ccc(Oc3cc(F)cc(Cl)c3)c2C#N)S1(=O)=O (stereo not shown) [Compound 172] | HIF-2α HIS TAG-PASB Domain (Homo sapiens, UniProt Q99814) | 4.29
O=S1(=O)c2ccc(OC3CCOCC3)c(C(F)F)c2C(O)C1(F)F (stereo not shown) [Compound 164] | HIF-2α HIS TAG-PASB Domain (Homo sapiens, UniProt Q99814) | 3.28
C=CCN=S(=O)(c1ccc(Oc2cc(F)cc(C#N)c2)c2c1[C@H](O)C(F)(F)C2)C(F)(F)F (single isomer, unassigned) [Compound 71] | HIF-2α HIS TAG-PASB Domain (Homo sapiens, UniProt Q99814) | 2.57
O=S1(=O)C[C@H](O)c2c1ccc(Oc1cccc(F)c1)c2Br [Compound 183] | HIF-2α HIS TAG-PASB Domain (Homo sapiens, UniProt Q99814) | 4.14
COCCNC1c2c(ccc(Oc3cc(F)cc(C#N)c3)c2C(F)F)S(=O)(=O)C1(F)F (stereo not shown) [Compound 146] | HIF-2α HIS TAG-PASB Domain (Homo sapiens, UniProt Q99814) | 3.46

Query string: Bench note: what log10 of IC50 did C=C1CC(O)c2c(S(C)(=O)=O)ccc(Oc3cc(F)cc(Cl)c3)c21 (stereo not shown) [Compound 44] show?
Result string: 3.53

Query string: What do you get for N#Cc1c(Oc2cc(F)cc(Cl)c2)ccc2c1[C@@H](O)CS2(=O)=O [Compound 112] ?
Result string: 1.67

----------
Molecular target: HIF-2α HIS TAG-PASB Domain (Homo sapiens, UniProt Q99814)
Construct: 100 nM HIF-2α HIS TAG-PASB Domain
Assay: HIF-2α Scintillation Proximity Assay (SPA)
Type: binding
Conditions: 150 nM Compound 211 probe, 100 nM HIF-2α HIS TAG-PASB Domain; read-out: SPA IC50
Reported pIC50 values for a set of compounds
pIC50 here: minus log base 10 of the concentration, concentration in moles per litre.

For orientation, consider the following solved cases.
compound | endpoint.result
CC1(O)c2cc(Oc3cc(F)cc(F)c3)ccc2S(=O)(=O)C1(F)F (stereo not shown) | 5.16
N#Cc1cc(F)cc(Oc2ccc3c(c2C(F)F)C(O)CS3(=O)=O)c1 (stereo not shown) | 6.15

Query string: Quick one: pIC50 for CS(=O)(=NC#N)c1ccc(Oc2cc(F)cc(C#N)c2)c2c1[C@H](O)[C@H](F)C2 (mixture of isomers) ?
Result string: 7.20

Query string: Next record, please: `N#Cc1cccc(Oc2ccc3c(c2Br)[C@@H](O)C(F)(F)S3(=O)=O)c1`
Result string: 7.77

Query string: Record: `CCOc1ccc2c(c1C(F)F)[C@@H](O)C(F)(F)S2(=O)=O`
Result string: 4.81

----------
Target: HIF-2α HIS TAG-PASB Domain (Homo sapiens, UniProt Q99814)
Construct: 100 nM HIF-2α HIS TAG-PASB Domain
Assay: HIF-2α Scintillation Proximity Assay (SPA)
Format: binding
Details: 150 nM Compound 211 probe, 100 nM HIF-2α HIS TAG-PASB Domain; read-out: SPA IC50
pIC50: −log10 of the molar value.
# pIC50 per record follows

compound | endpoint.result
CS(=O)(=NC#N)c1ccc(Oc2cc(F)cc(C#N)c2)c2c1[C@H](O)C(F)(F)[C@@H]2F (single isomer, unassigned) [Compound 81] | > 8.30
N#Cc1cncc(Oc2ccc(S(=O)(=O)C(F)(F)F)c3c2C[C@@H](F)[C@H]3O)c1 | > 8.30

Field: next compound
Query string: Consider the compound COCCNC1c2c(ccc(Oc3cc(F)cc(F)c3)c2Br)S(=O)(=O)C1(F)F (stereo not drawn) and give its measured pIC50.
Result string: > 8.30

----------
System: 786-O-Hif-Luc cells
Assay: Luciferase Assay
Type: cell-based
Settings: 24 h, 786-O-Hif-Luc cells; about 24 hours; read-out: Luciferase EC50
Recorded EC50, one value per entry.
All answers are understood in µM, so give the number only.

Recorded EC50, per entry:
molecule | measure.unit | endpoint.result
O=S1(=O)CC(O)c2c1ccc(Oc1cc(F)cc(Cl)c1)c2C(F)F (centres unmarked) [Compound 125] | µM | 0.725
N#Cc1cc(F)cc(Oc2ccc3c(c2CF)C(O)C(F)(F)S3(=O)=O)c1 (centres unmarked) [Compound 152] | µM | 0.126
N#Cc1c(Oc2cc(F)cc(F)c2)ccc2c1C(O)C(F)S2(=O)=O (centres unmarked) [Compound 154] | µM | 0.793
N#Cc1cncc(Oc2ccc(S(=N)(=O)C(F)(F)F)c3c2CC(F)(F)[C@H]3O)c1 (some centres unmarked) [Compound 78] | µM | 0.148
N#Cc1cncc(Oc2ccc3c(c2Br)[C@@H](O)C(F)(F)S3(=O)=O)c1 [Compound 188] | µM | 0.096

Query string: Give EC50 (786-O-Hif-Luc cells) of the following molecule: CS(=O)(=O)c1ccc(Oc2cncc(C#N)c2)c2c1[C@H](O)C(F)(F)[C@@H]2F [Compound 106]
Result string: 0.088

Query string: Repeat with O=S1(=O)c2ccc(Oc3cncc(Cl)c3)c(Br)c2[C@@H](O)C1(F)F [Compound 185]
Result string: 0.098

Query string: Field entry: O=S1(=O)c2ccc(OCC3CC3)c(C(F)F)c2[C@@H](O)C1(F)F [Compound 203]
Result string: 1.16

Query string: Entry to check: CC1(O)c2c(ccc(Oc3cc(F)cc(C#N)c3)c2C(F)F)S(=O)(=O)C1(F)F (centres unmarked) [Compound 206]
Result string: 0.771

Query string: Entry O=[N+]([O-])c1ccc(Oc2cc(F)cc(Cl)c2)c2c1C(O)CC2 (centres unmarked) [Compound 27] please
Result string: 1.39

Query string: Next molecule up: O=S(=O)(c1ccc(Oc2cc(F)c[n+]([O-])c2)c2c1[C@H](O)C(F)(F)C2)C(F)(F)F [Compound 74]
Result string: 0.113

Query string: What about this molecule? CS(=O)(=O)c1ccc(Oc2ccc(F)c(C#N)c2)c2c1[C@H](O)C(F)(F)[C@@H]2F [Compound 91]
Result string: 0.129

Query string: What do we get for N#CN=S(=O)(CF)c1ccc(Oc2cc(F)cc(C#N)c2)c2c1[C@H](O)C(F)(F)C2 (single isomer, unassigned) [Compound 49] ?
Result string: 0.1

Query string: Request: CS(=O)(=O)c1ccc(Oc2cc(F)cc(C#N)c2)c2c1[C@H](O)[C@H](F)[C@@H]2O [Compound 60]
Result string: 1.32

Query string: Can you check Cc1cc(C#N)cc(Oc2ccc(S(=O)(=O)CF)c3c2CC(F)(F)[C@H]3O)c1 [Compound 7] next?
Result string: 0.034

Query string: Thanks! And CS(=O)(=O)c1ccc(Oc2cncc(C#N)c2)c2c1[C@H](O)[C@H](F)[C@@H]2F [Compound 97] ?
Result string: 0.174

Query string: Could you do the same for CS(=O)(=O)c1ccc(Oc2cc(F)cc(C#N)c2)c2c1[C@H](O)CC2 [Compound 51] , please?
Result string: 0.65
